- tested_on: T1, monoclonal antibody EGX-P-E9
- T1 construct: Mouse IgG purified from hybridoma medium with Protein G; also called anti-PAMP EGX-P-E9 IgG; antibody of hybridoma clone PTA-7958
- assay_name: competition ELISA, non-biotinylated PAMP against 6.2 nM biotinylated PAMP on EGX-P-E9-coated wells
- Experimental: The activity of the purified monoclonal antibody EGX-P-E9 was examined by ELISA (Enzyme Linked Immunosorbent Assay, FIG. 1). Wells of a 96-well microtiter plate were coated with 5 μg/ml anti-PAMP EGX-P-E9 IgG diluted in PBS for several hours. […] To confirm the affinity for PAMP, IC50 values were determined by competing the binding of the EGX-P-E9 antibody to the biotinylated PAMP with native (non-biotinylated) human PAMP. […]
No end group written: not given here.
quantity: pIC50
Scale: pIC50 equals -log10([C]), with [C] in mol/L.

Identify measured pIC50 associated with ARLDVASEFRKKWNKWALSR-NH2 (also called human full length PAMP; hum FL) [native (non-biotinylated) human PAMP]
8.40
